This collection of values is drawn from the RNAGym collection of RNA variant scans (doi:10.7554/elife.80360).

Measured self-cleavage, listed per entry for reference.
B1: HDV Ribozyme (parent)
chain: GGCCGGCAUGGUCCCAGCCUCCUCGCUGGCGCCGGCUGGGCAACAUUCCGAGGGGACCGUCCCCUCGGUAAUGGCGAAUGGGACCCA

# Variants of: B1
# ASSAY PROCEDURE: self-cleavage, relative activity (ratio to wild type); higher = more cleavage; co-transcriptional
MEASURED PARAMETER: self-cleavage

VARIANT ID | OBS VALUE
C3G U79G | 0.262
G28U C49G | 0.116
G11A C30G | 0.0225
C63U G82A | 0.534
A16U A87U | 0.862
G40A G55A | 0.882
U20G U69C | 0.185
A16C G35C | 0.175
C13U A77U | 0.155
G2A C18U | 0.0239
G5U U46G | 0
G6U G81A | 0.0997
C48A C63A | 0.816
A16G A42G | 0.504
C63A G74C | 0.312
G25C G39U | 0.0978
C26U C84U | 1.05
G39U A78U | 0.157
C19G G55U | 0.04
A42U U60A | 0.665
G54C G59A | 0.926
C3A A83U | 0.0821
C26U A43G | 0.745
A43U C84G | 0.146
G28U G54A | 0.115
C41A C57G | 1.04
C63U G81C | 0.151
C44A G54A | 0.759
G29A U60C | 0.0997
C57U G82U | 0.234
G17C | 0.338
C36G U60C | 0.237
A8C C33U | 0.554
A16U G39C | 0.185
U27A G34U | 0.272
G6U G81C | 0.196
A51U G53C | 0.776
C13G C64U | 0.0268
G1U G31U | 0.385
G59U G73U | 0.516
U9C G40C | 0.135
U46C A51G | 0.639
G17A C66G | 0.652
C18G G28C | 0.0573
A43C A51G | 0.499
G52C G81C | 0.242
